Listed here are binders together with their documented % binding of analyte mAb.
Target: T1, Recombinant human PSGL-1(ECD)-hFc1 (R&D Systems, Cat. 3345-PS) (human, UniProt Q14242 42-305)
T1 construct: Bought; Gln42-Val295 counted on AAC50061; also called PSGL-1-Fc; PSGL-1-hFc1 chimera; not shown: human IgG1 Fc, Pro100-Lys330
T1 sequence: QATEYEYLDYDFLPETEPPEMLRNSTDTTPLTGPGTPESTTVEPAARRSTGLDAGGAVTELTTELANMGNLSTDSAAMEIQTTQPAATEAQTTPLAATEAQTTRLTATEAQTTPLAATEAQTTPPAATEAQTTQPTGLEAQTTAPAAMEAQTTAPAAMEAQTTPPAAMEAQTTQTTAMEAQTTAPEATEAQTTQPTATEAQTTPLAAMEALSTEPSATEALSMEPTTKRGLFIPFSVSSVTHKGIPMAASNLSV
Assay: Octet tandem; competitor 20G13
Procedure: Antibody binning was performed by ForteBio Octet® using a tandem assay format, with anti-human IgG biosensor-immobilized PSGL-1(ECD)-hFc1 protein, binding of competitor mAb followed by analyte antibody. As competition controls, the same antibody was competed against itself, and mAb competition was performed bidirectionally. […]

binder: 18F17 (antibody, V domains shown, Non-functional anti-PSGL-1 mAb (Verseau); only variable domains given) VH: QVTLKESGPGILQPSQTLSLTCSFSGFSLSTFGMGVGWIRQPSGKGLEWLAHIWWDDDKYYNPALKSRLTISKDTSKNQVFLKIANVDTADTATYYCAIYYDYGVGFDYWGQGTTLTVSS VL: DIVMTQAAPSVPVTPGESVSISCRSSKSLLHSNGYTFLYWFLQRPGQSPQLLIYRMSNLASGVPDRFSGSGSGTAFTLRISRVEAEDVGVYYCMQHLEYPFTFGTGTKLEIK
% binding of analyte mAb [%]: 22

binder: 15A7 (antibody, V domains shown, Control mAb, recombinant; also called h15A7; 15A17) VH: EVQLVESGGGLVQPGGSLRLSCAASGFTFSSFGMHWVRQAPGKGLEWVAYINGGSSTIFYANAVKGRFTISRDNAKNTLYLQMNSLRAEDTAVYYCARYASYGGGAMDYWGQGTLVTVSS VL: DIQMTQSPSSLSASVGDRVTITCRSSQSIVHNDGNTYFEWYQQKPGKAPKLLIYKVSNRFSGVPSRFSGSGSGTHFTLTISSLQPEDFATYYCFQGSYVPLTFGQGTKVEIK
% binding of analyte mAb [%]: 15.1

binder: 19N05 (antibody, V domains shown, From mouse immunisation; only variable domains given) VH: QIQLVQSGPELKKPGETVKISCKASGYTFTTYGMSWVKQAPGKGLKWMGWINTYSGVPTFADDFKGRFAFSLETSASTAYLQINNLKNEDTATFFCARNYYGNHYFDYWGQGTTLTVSS VL: DVQITQSPSYLAASPGETISINCRASNNINKYLAWYQEKPGKTNKLLIYSGSTLQSGIPSRFSGSGSGTDFTLTISSLEPEDFAMYHCQQHNYYPLTFGAGTKLELK
% binding of analyte mAb [%]: 0

These measurements were taken from patent US20220396632A1.
